The origin of these recorded values is ChEMBL document CHEMBL5107965.

Experiment: Half life in BALB/c mouse at 30 mg/kg, po via gavage
Assay type: ADME, organism-based
Conditions: in vivo
OBSERVED_PROPERTY: half-life (h)

MOLECULE: Cc1ccc(NC(=O)c2ccc(CN3CC[C@H](N(C)C)C3)c(C(F)(F)F)c2)cc1Nc1nccc(-c2cncnc2)n1 [BAFETINIB]
OBSERVED_PROPERTY: half-life
REPORTED_RESULT: 1

###

Experiment: Half life in mouse at 10 mg/kg, po measured after upto 24 hrs by LC-MS/MS analysis
Format: ADME, organism-based
Conditions: in vivo

STRUCTURE: Cc1ncsc1-c1ccc(CNC(=O)[C@@H]2C[C@@H](O)CN2C(=O)[C@@H](NC(=O)COCCNc2ccc(C(=O)Nc3ccc(OC(F)(F)Cl)cc3)cc2-c2cc[nH]n2)C(C)(C)C)cc1
VALUE_UNITS: h
half-life: 3.67
